For each record, write down the corresponding IC50.
# target.or.test.system: Human PKMYT1 (Homo sapiens, UniProt Q99640)
# Construct: Human PKMYT1 75-362 was cloned as a TEV cleavable 6xHis fusion; 6xHis (TEV cleavable) (cleaved yes); made in house; host or cells: bacterial cells
# Sequence (Q99640 75-362): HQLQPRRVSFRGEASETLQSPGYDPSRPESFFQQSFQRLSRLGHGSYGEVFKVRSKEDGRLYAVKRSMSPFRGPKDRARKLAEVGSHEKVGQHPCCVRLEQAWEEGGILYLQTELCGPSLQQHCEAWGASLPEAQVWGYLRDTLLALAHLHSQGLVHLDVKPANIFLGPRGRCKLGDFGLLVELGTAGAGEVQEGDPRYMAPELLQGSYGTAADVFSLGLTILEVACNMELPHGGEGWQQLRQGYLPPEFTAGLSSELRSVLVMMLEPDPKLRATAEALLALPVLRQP
# assay: PKMYT1 biochemical ADP-Glo enzymatic assay
# condition.description: ADP-Glo; 15 nM PKMYT1 kinase domain, 500 µM ATP, 60 minutes at 26° C.; banded

Query: IC50; subject: `Cc1ccc(O)c(C)c1NC(=O)c1cnc(Nc2ccc(NC(=O)c3c(F)cc(F)cc3F)cn2)s1`
Reply: 50 to 1000 nM

Query: Moving on to the next molecule: `Cc1ccc(O)c(C)c1NC(=O)c1cnc(Nc2ccn(CC(=O)N3CCN(CC4CC4)CC3)n2)s1`
Reply: < 50 nM

Query: Again, but for `Cc1ccc(O)c(C)c1NC(=O)c1cnc(Nc2sccc2C(N)=O)s1`
Reply: 50 to 1000 nM

Query: Another molecule to look at: `Cc1ccc(O)c(C)c1NC(=O)c1cnc(Nc2cccc(-c3cc(F)cc(F)c3)n2)s1`
Reply: < 50 nM

Query: Let us now turn to `Cc1ccc(O)c(C)c1NC(=O)c1cnc(Nc2ccn(CC(=O)N3CCN(C4CCCC4)CC3)n2)s1`
Reply: < 50 nM

Query: And then `Cc1ccc(O)c(C)c1NC(=O)c1cnc(Nc2cc(CO)n(C)n2)s1` , what is it?
Reply: < 50 nM

Query: Please answer likewise for `Cc1ccc(O)c(C)c1NC(=O)c1cnc(N[C@@H](C)c2ccccc2)s1`
Reply: 1000 to 11000 nM

Query: What about this molecule? `Cc1ccc(O)c(C)c1NC(=O)c1cnc(Nc2ccn(C(C)C)n2)s1`
Reply: 50 to 1000 nM

Query: And what about the molecule `CCN1CCN(C(=O)Cn2ccc(Nc3ncc(C(=O)Nc4c(C)ccc(O)c4C)s3)n2)CC1` ?
Reply: < 50 nM

Query: Repeat with `Cc1ccc(O)c(C)c1NC(=O)c1cnc(Nc2nn(-c3ccccn3)cc2Cl)s1`
Reply: < 50 nM

Query: And for Cc1ccc(NC(=O)C2CCOCC2)nc1Nc1ncc(C(=O)Nc2c(C)ccc(O)c2C)s1.Cl [BAA-331, hydrochloride] ?
Reply: < 50 nM

Query: Let us now turn to `Cc1ccc(O)c(C)c1NC(=O)c1cnc(Nc2ccc(C(C)(C)C)cc2)s1`
Reply: 50 to 1000 nM

Query: Then what about the molecule `Cc1ccc(O)c(C)c1NC(=O)c1cnc(Nc2ccn([C@@H]3CCOC3)n2)s1` ?
Reply: 50 to 1000 nM

Query: Param item: `Cc1ccc(O)c(C)c1NC(=O)c1cnc(Nc2ccn(CC(=O)N3CCC(O)CC3)n2)s1`
Reply: < 50 nM

Query: What do we get for `Cc1ccc(O)c(C)c1NC(=O)c1cnc(Nc2cc[nH]n2)s1` ?
Reply: 1000 to 11000 nM

Query: Please give the result for `COCc1cc(Nc2ncc(C(=O)Nc3c(C)ccc(O)c3C)s2)nn1C` too.
Reply: 50 to 1000 nM

Query: Lookup `CCN(C)C(=O)N1CC[C@@H](n2ccc(Nc3ncc(C(=O)Nc4c(C)ccc(O)c4C)s3)n2)C1`
Reply: 50 to 1000 nM
